assay: logP (acidic, pH 2.3); conditions: pH 2.3, logP acidic, acidic
reported property: logP

Use the examples below as a reference point.
compound | logP
CCN(C)C=Nc1cc(C)c(Oc2ccc(C3CCCCC3)cc2)cc1C | 2.99
CCN(C)C=Nc1cc(C)c(Oc2ccc(-c3ccccc3)cc2)cc1C | 2.64
CCN(C)C=Nc1cc(C)c(Oc2ccc(-c3ccc(C(F)(F)F)cc3)cc2)cc1C | 2.94
CCN(C)C=Nc1cc(C)c(Oc2ccc(-c3ccc(N(C)C)cc3)cc2)cc1C | 2.13
CCN(C)C=Nc1cc(C)c(Oc2ccc(-c3ccc(S(=O)(=O)CC)cc3)cc2)cc1C | 2.06

I. CCN(C)C=Nc1cc(C)c(Oc2ccc(-c3ccc(C(C)=O)cc3)cc2)cc1C
II. Cc1cc(Oc2ccc(-c3ccccc3OCC(C)C)cc2)c(C)cc1/N=C/N1CCCCC1
Prompt: I'm curious, which of these has a smaller logP number: I or II ? Your answer should be the label of the entry you select.
Completion: I
